# System: Escherichia coli TOP10
# measurement-description: shrunken log2 fold change of peptide-encoding DNA abundance (4.5 h post-induction vs induction); higher = less antimicrobial activity (less host growth inhibition)
# condition-description: time post-induction: 4.5 h; library: site-saturation at positions 5, 18, 19, 20
Definition: the class of an entry is the range in low band: < -0.1; middle band: ≥ -0.1 and < 0.07; high band: ≥ 0.07 that contains its shrunken log2 fold change.

1. RRIRFRPPRLPRPRPRPPHFPRP ... high band
2. RRIRNRPPRLPRPRPRPEVFPRP ... middle band
3. RRIRGRPPRLPRPRPRPNHGPRP ... low band
4. RRIRWRPPRLPRPRPRPRWKPRP ... middle band
5. RRIRRRPPRLPRPRPRPPCKPRP ... high band
6. RRIRHRPPRLPRPRPRPYAWPRP ... middle band
7. RRIRARPPRLPRPRPRPELNPRP ... high band
8. RRIRRRPPRLPRPRPRPHYSPRP ... low band
9. RRIRTRPPRLPRPRPRPCIRPRP ... middle band
10. RRIRHRPPRLPRPRPRPWVHPRP ... low band
11. RRIRARPPRLPRPRPRPIHCPRP ... low band
12. RRIRERPPRLPRPRPRPMHMPRP ... middle band
13. RRIRARPPRLPRPRPRPATRPRP ... high band
14. RRIRRRPPRLPRPRPRPMMWPRP ... high band
15. RRIRNRPPRLPRPRPRPEPPPRP ... high band
16. RRIRWRPPRLPRPRPRPINMPRP ... low band
17. RRIRSRPPRLPRPRPRPPPPPRP ... high band
18. RRIRHRPPRLPRPRPRPQKYPRP ... low band
19. RRIRYRPPRLPRPRPRPWPKPRP ... high band
20. RRIRTRPPRLPRPRPRPLQAPRP ... middle band
21. RRIRYRPPRLPRPRPRPHGPPRP ... low band
22. RRIRIRPPRLPRPRPRPPEEPRP ... middle band
23. RRIRMRPPRLPRPRPRPADFPRP ... middle band
24. RRIRMRPPRLPRPRPRPRKMPRP ... high band
25. RRIRERPPRLPRPRPRPRLQPRP ... middle band
26. RRIRKRPPRLPRPRPRPFSCPRP ... low band
27. RRIRYRPPRLPRPRPRPLCLPRP ... low band
28. RRIRHRPPRLPRPRPRPYDEPRP ... middle band
29. RRIRYRPPRLPRPRPRPVTVPRP ... low band
30. RRIRVRPPRLPRPRPRPSNDPRP ... low band
31. RRIRHRPPRLPRPRPRPIVNPRP ... high band
32. RRIRNRPPRLPRPRPRPGQCPRP ... middle band

====

# System: Escherichia coli TOP10
# measurement-description: shrunken log2 fold change of peptide-encoding DNA abundance (4.5 h post-induction vs induction); higher = less antimicrobial activity (less host growth inhibition)
# condition-description: time post-induction: 4.5 h; library: site-saturation at positions 5, 18, 19, 20
# shrunken log2 fold change listing for each entry below
endpoint: shrunken log2 fold change

1. RRIRIRPPRLPRPRPRPYWRPRP ... -0.478
2. RRIRRRPPRLPRPRPRPTDNPRP ... 0.277
3. RRIRYRPPRLPRPRPRPYEQPRP ... -0.0134
4. RRIRPRPPRLPRPRPRPHPGPRP ... 2.42
5. RRIRVRPPRLPRPRPRPPAHPRP ... 0.231
6. RRIRERPPRLPRPRPRPFENPRP ... -0.01
7. RRIRSRPPRLPRPRPRPEASPRP ... 0.715
8. RRIRFRPPRLPRPRPRPWSVPRP ... -0.0111
9. RRIRHRPPRLPRPRPRPYLMPRP ... -0.554
10. RRIRNRPPRLPRPRPRPSMDPRP ... 0.00334
11. RRIRKRPPRLPRPRPRPTVGPRP ... 0.197
12. RRIRGRPPRLPRPRPRPTSEPRP ... 0.339
13. RRIRQRPPRLPRPRPRPKPQPRP ... -0.0342
14. RRIRGRPPRLPRPRPRPQRWPRP ... 0.293
15. RRIRRRPPRLPRPRPRPNPRPRP ... 1.11
16. RRIRERPPRLPRPRPRPVSPPRP ... -0.33
17. RRIRFRPPRLPRPRPRPDDLPRP ... 0.00489
18. RRIRVRPPRLPRPRPRPYNPPRP ... -0.492
19. RRIRDRPPRLPRPRPRPILHPRP ... -0.0215
20. RRIRCRPPRLPRPRPRPNQMPRP ... -0.447
21. RRIRGRPPRLPRPRPRPFVAPRP ... 0.751
22. RRIRHRPPRLPRPRPRPACVPRP ... 0.0678
23. RRIRDRPPRLPRPRPRPWLLPRP ... 0.0241
24. RRIRFRPPRLPRPRPRPSTQPRP ... -0.503
25. RRIRARPPRLPRPRPRPFKKPRP ... -0.0888
26. RRIRVRPPRLPRPRPRPQMEPRP ... -0.0589
27. RRIRIRPPRLPRPRPRPFYKPRP ... -0.0824
28. RRIRGRPPRLPRPRPRPLNMPRP ... -0.114
29. RRIRVRPPRLPRPRPRPCAWPRP ... 0.27
30. RRIRPRPPRLPRPRPRPIYPPRP ... -0.269
31. RRIRIRPPRLPRPRPRPIACPRP ... -0.0842
32. RRIRLRPPRLPRPRPRPETWPRP ... 0.0117

====

# Test system: Escherichia coli TOP10
# measurement-description: shrunken log2 fold change of peptide-encoding DNA abundance (4.5 h post-induction vs induction); higher = less antimicrobial activity (less host growth inhibition)
# condition-description: time post-induction: 4.5 h; library: site-saturation at positions 5, 18, 19, 20
endpoint: shrunken log2 fold change

1. RRIRHRPPRLPRPRPRPRAVPRP ... 0.518
2. RRIRMRPPRLPRPRPRPDTAPRP ... 1.24
3. RRIRSRPPRLPRPRPRPFWWPRP ... 0.309
4. RRIRDRPPRLPRPRPRPWSRPRP ... -0.612
5. RRIRCRPPRLPRPRPRPELSPRP ... 0.52
6. RRIRSRPPRLPRPRPRPVHGPRP ... -0.215
7. RRIRHRPPRLPRPRPRPTHSPRP ... -0.192
8. RRIRSRPPRLPRPRPRPPKEPRP ... 1.07
9. RRIRPRPPRLPRPRPRPPQTPRP ... 0.362
10. RRIRCRPPRLPRPRPRPTKPPRP ... 0.531
11. RRIRRRPPRLPRPRPRPKKLPRP ... 0.166
12. RRIRRRPPRLPRPRPRPTTFPRP ... 3.05
13. RRIRDRPPRLPRPRPRPAVGPRP ... 0.148
14. RRIRGRPPRLPRPRPRPMKSPRP ... 0.206
15. RRIRNRPPRLPRPRPRPRKKPRP ... 0.163

====

# System: Escherichia coli TOP10;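 further: peptides expressed intracellularly from a pBAD plasmid library in pooled LB shake-flask culture, induced with 0.3% L-arabinose, DNA abundance read by NGS, three biological replicates, DESeq2 with apeglm shrinkage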
# measurement-description: shrunken log2 fold change of peptide-encoding DNA abundance (4.5 h post-induction vs induction); higher = less antimicrobial activity (less host growth inhibition)
# condition-description: time post-induction: 4.5 h; library: site-saturation at positions 5, 18, 19, 20
endpoint: shrunken log2 fold change

1. RRIRDRPPRLPRPRPRPVENPRP ... -0.127
2. RRIRIRPPRLPRPRPRPSVNPRP ... -0.225
3. RRIRARPPRLPRPRPRPLCFPRP ... 0.195
4. RRIRFRPPRLPRPRPRPAWEPRP ... 0.62
5. RRIRQRPPRLPRPRPRPKEIPRP ... -0.223
6. RRIRRRPPRLPRPRPRPAQGPRP ... -0.179
7. RRIRPRPPRLPRPRPRPGDFPRP ... -0.0208
8. RRIRPRPPRLPRPRPRPAVPPRP ... 0.1
9. RRIRYRPPRLPRPRPRPRKAPRP ... 0.00796
10. RRIRIRPPRLPRPRPRPTIIPRP ... -0.848
11. RRIRHRPPRLPRPRPRPTFKPRP ... -0.537
12. RRIRCRPPRLPRPRPRPTHRPRP ... 0.426
13. RRIRTRPPRLPRPRPRPSQIPRP ... -0.0567
14. RRIRRRPPRLPRPRPRPHRFPRP ... -0.0954
15. RRIRRRPPRLPRPRPRPDQEPRP ... 0.0223
16. RRIRFRPPRLPRPRPRPYSPPRP ... -0.324
17. RRIRDRPPRLPRPRPRPYWFPRP ... -0.579
18. RRIRRRPPRLPRPRPRPIYAPRP ... 3.39
19. RRIRIRPPRLPRPRPRPILYPRP ... -0.357
20. RRIRGRPPRLPRPRPRPPRTPRP ... 1.33
21. RRIRIRPPRLPRPRPRPIWVPRP ... -0.145
22. RRIRWRPPRLPRPRPRPCYAPRP ... -0.345
23. RRIRSRPPRLPRPRPRPHGPPRP ... -0.0864
24. RRIRGRPPRLPRPRPRPFEVPRP ... 0.121
25. RRIRKRPPRLPRPRPRPWWHPRP ... 0.047
26. RRIRHRPPRLPRPRPRPYKKPRP ... -0.0963
27. RRIRNRPPRLPRPRPRPKLTPRP ... 2
28. RRIRVRPPRLPRPRPRPQIFPRP ... -0.0538
29. RRIRFRPPRLPRPRPRPHKIPRP ... -0.495
30. RRIRTRPPRLPRPRPRPAKNPRP ... -0.0492
31. RRIRQRPPRLPRPRPRPDYGPRP ... -0.159
32. RRIRWRPPRLPRPRPRPGHMPRP ... -0.0823
